Biological target: LYN (Homo sapiens, UniProt P07948)
Sequence (P07948 whole entry): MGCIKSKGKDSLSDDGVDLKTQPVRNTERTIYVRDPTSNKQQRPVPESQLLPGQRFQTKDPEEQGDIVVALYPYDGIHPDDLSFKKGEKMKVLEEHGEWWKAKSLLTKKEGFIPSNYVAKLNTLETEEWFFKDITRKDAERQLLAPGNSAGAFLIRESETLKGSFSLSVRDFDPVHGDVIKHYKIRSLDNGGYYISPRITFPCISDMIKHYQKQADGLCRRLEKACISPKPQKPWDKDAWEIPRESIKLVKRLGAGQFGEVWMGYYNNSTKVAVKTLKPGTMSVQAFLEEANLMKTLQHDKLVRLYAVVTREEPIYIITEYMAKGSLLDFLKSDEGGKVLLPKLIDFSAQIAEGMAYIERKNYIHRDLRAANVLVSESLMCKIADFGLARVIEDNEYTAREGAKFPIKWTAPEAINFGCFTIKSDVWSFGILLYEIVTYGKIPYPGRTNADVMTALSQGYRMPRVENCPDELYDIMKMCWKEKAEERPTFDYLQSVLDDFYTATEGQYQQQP
Assay: PamChip microarray peptide phosphorylation
Conditions: peptide substrate phosphorylated by LYN
Observation Type: Relative phosphorylation (% of highest signal)

| Substance | Target Entity | Experimental Value |
| --- | --- | --- |
| VGFR1_1320_1332_C1320K/C1321K (KKSPPPDYNSVVL; UniProt P17948 1320-1332, looked up, variant C1320K C1321K) | LYN (Homo sapiens, UniProt P07948) | -0.28 % of highest signal |
| VGFR1_1049_1061 (KNPDYVRKGDTRL; UniProt P17948 1049-1061, looked up, fragment) | LYN (Homo sapiens, UniProt P07948) | -0.274 % of highest signal |
| STAT4_686_698 (TERGDKGYVPSVF; UniProt Q14765 686-698, looked up, fragment) | LYN (Homo sapiens, UniProt P07948) | -0.165 % of highest signal |
| STA5A_687_699 (LAKAVDGYVKPQI; UniProt P42229 687-699, looked up, fragment) | LYN (Homo sapiens, UniProt P07948) | -0.4 % of highest signal |
| EFS_246_258_Y253F (GGTDEGIFDVPLL; UniProt O43281 246-258, looked up, fragment Y253F) | LYN (Homo sapiens, UniProt P07948) | -0.264 % of highest signal |

Asked: Need Relative phosphorylation (% of highest signal) of MBP_263_275 (GRASDYKSAHKGF; UniProt P02686 263-275, looked up, fragment) , thanks.
Given back: -0.172 % of highest signal

Asked: Need Relative phosphorylation (% of highest signal) of NTRK2_509_521 (PVIENPQYFGITN; UniProt Q16620 509-521, looked up, fragment) , thanks.
Given back: 0.113 % of highest signal

Asked: Need Relative phosphorylation (% of highest signal) of VGFR2_1046_1058 (DFGLARDIYKDPD; UniProt P35968 1046-1058, looked up, fragment) , thanks.
Given back: 0.243 % of highest signal

Asked: Need Relative phosphorylation (% of highest signal) of ZBT16_621_633 (LRTHNGASPYQCT; UniProt Q05516 621-633, looked up, fragment) , thanks.
Given back: -0.2 % of highest signal

Asked: Need Relative phosphorylation (% of highest signal) of MBP_259_271 (FGYGGRASDYKSA; UniProt P02686 259-271, looked up, fragment) , thanks.
Given back: -0.152 % of highest signal

Asked: Need Relative phosphorylation (% of highest signal) of VGFR2_989_1001 (EEAPEDLYKDFLT; UniProt P35968 989-1001, looked up, fragment) , thanks.
Given back: 2.8 % of highest signal

Asked: Need Relative phosphorylation (% of highest signal) of AMPE_5_17 (EREGSKRYCIQTK; UniProt Q07075 5-17, looked up, fragment) , thanks.
Given back: 0.114 % of highest signal

Asked: Need Relative phosphorylation (% of highest signal) of VGFR1_1235_1247 (ATSMFDDYQGDSS; UniProt P17948 1235-1247, looked up, fragment) , thanks.
Given back: -0.0433 % of highest signal

Asked: Need Relative phosphorylation (% of highest signal) of `ART_004_EAIYAAPFAKKKXC` , thanks.
Given back: 2.6 % of highest signal
